Field: inhibition at 10 µM. Provide a value for each of the molecules that follow.
Molecular target: EGFR kinase (Homo sapiens)
Construct: purchased Reaction Biology Co. (Kinase HotSpot service)
Sequence (P00533 25-1210): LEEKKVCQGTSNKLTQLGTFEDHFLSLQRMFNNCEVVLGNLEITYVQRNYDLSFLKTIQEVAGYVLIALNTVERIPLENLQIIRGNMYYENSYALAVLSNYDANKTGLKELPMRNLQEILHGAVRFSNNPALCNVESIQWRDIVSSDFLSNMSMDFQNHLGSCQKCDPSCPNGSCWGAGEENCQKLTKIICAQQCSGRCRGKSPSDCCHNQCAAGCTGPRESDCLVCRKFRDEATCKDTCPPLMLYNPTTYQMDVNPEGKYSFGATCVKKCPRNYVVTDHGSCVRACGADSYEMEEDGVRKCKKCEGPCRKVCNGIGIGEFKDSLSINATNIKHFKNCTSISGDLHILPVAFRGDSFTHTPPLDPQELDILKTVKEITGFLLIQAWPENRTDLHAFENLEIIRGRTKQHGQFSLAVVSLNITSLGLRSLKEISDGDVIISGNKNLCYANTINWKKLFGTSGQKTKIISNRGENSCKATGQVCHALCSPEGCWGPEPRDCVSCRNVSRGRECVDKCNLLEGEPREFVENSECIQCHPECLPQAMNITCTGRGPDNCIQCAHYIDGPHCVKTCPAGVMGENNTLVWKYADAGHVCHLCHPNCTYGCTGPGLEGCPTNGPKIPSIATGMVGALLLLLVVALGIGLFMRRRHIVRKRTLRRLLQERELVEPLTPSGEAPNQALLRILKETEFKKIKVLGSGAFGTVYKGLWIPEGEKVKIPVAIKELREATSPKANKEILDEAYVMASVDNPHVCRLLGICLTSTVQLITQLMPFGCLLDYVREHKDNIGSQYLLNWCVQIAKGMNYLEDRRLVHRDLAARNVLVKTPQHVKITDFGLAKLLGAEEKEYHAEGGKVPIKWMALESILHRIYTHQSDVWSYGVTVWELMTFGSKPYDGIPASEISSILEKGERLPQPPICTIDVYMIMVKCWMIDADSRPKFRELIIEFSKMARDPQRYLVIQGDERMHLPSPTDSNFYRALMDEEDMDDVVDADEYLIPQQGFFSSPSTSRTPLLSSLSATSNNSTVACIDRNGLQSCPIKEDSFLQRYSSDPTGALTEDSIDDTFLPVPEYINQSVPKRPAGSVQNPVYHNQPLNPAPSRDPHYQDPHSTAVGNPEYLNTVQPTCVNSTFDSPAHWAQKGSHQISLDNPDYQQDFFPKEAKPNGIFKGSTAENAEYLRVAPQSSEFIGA
Assay: EGFR kinase inhibition assay (HotSpot)
Type: biochemical
Conditions: EGFR kinase, 10 µM compound, 10 µM ATP as printed; read-out: Average % Enzyme Inhibition (Relative to DMSO Controls) at 10 µM
Report as a plain number; the unit % is understood.

Q: For the record NS(=O)(=O)c1ccc(Nc2ncnc3ccc(-c4cccnc4)cc23)cc1 , what value of inhibition at 10 µM is listed for EGFR kinase (Homo sapiens)?
A: 0.56

Q: Another molecule: NS(=O)(=O)c1ccc(Nc2ncnc3ccc(-c4ccc(C=O)o4)cc23)cc1
A: 25.2

Q: Another molecule: NS(=O)(=O)c1ccc(Nc2ncnc3ccc(Br)cc23)cc1
A: -13.2

Q: Another molecule: NS(=O)(=O)c1cccc(Nc2ncnc3ccc(-c4cccnc4)cc23)c1
A: 4.57

Q: Another molecule: NS(=O)(=O)c1ccc(Nc2ncnc3ccc(-c4cccc(O)c4)cc23)cc1
A: 46.8
